- System: primary rat mixed cortical cells
- experiment summary: In vitro myelination assay (MBP positive myelin strands, fold myelin pixels above background)
- Format: cell-based
- protocol conditions: Rattus norvegicus, 10.0 μM compound; read-out: Fold myelin pixels above background relative to baseline of no added compound
Overview of reported fold induction at 10 µM across a group of compounds:

compound	study target	fold induction at 10 µM
[2H]C1(N2C([2H])([2H])C([2H])([2H])N(c3cc(C)cc(Nc4ncn(-c5cc(F)cc(F)c5)n4)c3)C([2H])([2H])C2([2H])[2H])COC1 [Compound 997]	primary rat mixed cortical cells	≤ 1
COCC1CCN(c2cc(C(F)(F)F)cc(Nc3ncn(-c4cccc(C(F)F)c4)n3)n2)CC1 [Compound 807]	primary rat mixed cortical cells	1 to 10
Cc1cc(OCC2COC2)cc(Nc2ncn(-c3cc(F)cc(F)c3)n2)c1C [Compound 909]	primary rat mixed cortical cells	10 to 100
Cc1cc(Nc2ncn(-c3cc(F)cc(F)c3)n2)cc(N2CCOC3(CC3)C2)c1 [Compound 1035]	primary rat mixed cortical cells	1 to 10
Cc1cc(Nc2ncn(-c3cc(F)cc(F)c3)n2)cc(N2CCOC(CCO)C2)c1 (stereo not shown) [Compound 958]	primary rat mixed cortical cells	≤ 1
Cc1cc(Nc2ncn(-c3cc(F)cc(F)c3)n2)c(F)c(OC2CCOC2)c1 (single isomer, unassigned) [Compound 1028]	primary rat mixed cortical cells	1 to 10
Cc1cc(Nc2ncn(-c3cc(F)cc(F)c3)n2)cc(NC2CCCN(CCF)C2)c1 (stereo not shown) [Compound 873]	primary rat mixed cortical cells	≤ 1
